# key: entry, value: EC50
# tested.target: T1, Human recombinant CD5L protein (Sino Biological, Catalog Number 10791-H08H) (human, UniProt O43866 20-347)
# T1 construct: Bought protein; also called human CD5L; CD5L-His; not shown: 6xHIS-tag
# T1 sequence (looked up): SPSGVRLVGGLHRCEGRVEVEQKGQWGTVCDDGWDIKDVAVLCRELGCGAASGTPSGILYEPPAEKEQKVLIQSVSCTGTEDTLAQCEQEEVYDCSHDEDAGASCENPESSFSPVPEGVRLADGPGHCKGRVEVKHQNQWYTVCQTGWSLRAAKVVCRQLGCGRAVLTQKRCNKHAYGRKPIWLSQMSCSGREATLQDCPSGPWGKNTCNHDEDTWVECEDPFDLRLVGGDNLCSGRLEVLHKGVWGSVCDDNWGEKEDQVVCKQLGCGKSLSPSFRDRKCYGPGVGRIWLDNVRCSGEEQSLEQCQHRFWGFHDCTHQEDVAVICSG
# test.name: titration ELISA, human CD5L coated on plate
Unit µg/mL implied. Number only.

// known answers, use as guide
binder	EC50 (µg/mL)
R-23 (antibody, V domains shown) VH: QSVEESGGRLVMPGGSLTLTCTVSGIDLSSNTMGWFRQAPGKGLEWIGIMRGGGSTYYATWAKGRFTISKTSTTVDLKLTSPTTEDTATYFCARAFPGYNSFFNFWGQGTLVTISS VL: ELDLTQTPASVSEPVGGTVTIKCQASHNINSALAWYQQKPGQPPKLLIYKASTLASGVPPRFKGSGSGTEFTLTISDLECADAATYYCQRHYFDGASADIAFGGGTEVVVK	0.14
R-9 (antibody, V domains shown) VH: QSVKESGGRLVTPGTPLTLTCTVSGFYLSTHGMTWVRQAPGKGLEYIGVIVTSGNTYYATWATGRFTISKTSTTVDLKITSPTTEDTATYFCARPGYKSVPLWGQGTLVTISS VL: ELDLTQTPASVSAAVGGTVTINCQASEDIYSGLTWYQQKPGQPPKLLIYRASTLASGVPPRFKGSGSGTEFTLTISDLECDDAATYYCQNNYGSSSNNYVFAFGGGTEVEIK	0.136

Then this binder:
Ask: Answer with the recorded EC50 of R-13 (antibody, V domains shown) VH: QSLEESGGRLVTPGTPLTLTCTVSGFSLSSYPMSWVRQAPGKGLEWIGIITSGGSIFYATWANGRFTISKTSTTVDLKITSPTTEDTATYFCARGYSSGTMMSSNLWGQGTLVTVSS VL: ELVLTQTPASVSEPVGGTVTIKCQASESISTYLSWYQQKPGQRPKLLIYRASTLESGVPSRFKGSGSGTEYTLTISGVQCADAATYYCQQGYTYKNVDNAFGGGTEVVVK only.
Result: 0.116
